# System: Hs-578T
# Test Method Notes: NCI tumour cell line growth inhibition, 48 h
The source made the active and inactive calls. Cut-off read from the data, not from the text of the source: active = GI50 up to about 1.1 µM and inactive = higher.
Labels: active, inactive

> print(dat)
                                    molecule     group
 1     O=c1cc(-c2cccnc2)[nH]c2cc3c(cc12)OCO3  inactive
 2  O=C(NCCC1CN(C(=O)OCc2ccccc2)c2ccccc21)OCc1ccccc1 (centres undefined)  inactive
 3  C=C(Cl)C(Cl)(CBr)CCC(Br)C(C)(C)Br (centres undefined)  inactive
 4  Cc1cc(C)nc(NS(=O)(=O)c2ccc(NC(=O)c3ccc4nc5ccccc5c(Nc5ccc(S(=O)(=O)Nc6nc(C)cc(C)n6)cc5)c4c3)cc2)n1  inactive
 5  C=CCOC(=O)C1C2OC3(C(C(=O)OC)=C2C(=O)OC)c2ccccc2CCC13 (centres undefined)  inactive
 6  Fc1ccc2nc3n(c2c1)C(c1c(Cl)cccc1Cl)SC3 (centres undefined)  inactive
 7  N#Cc1cc2c(n(C3OC(CO)C(O)C(O)C3O)c1=S)CCCCC2 (centres undefined)  inactive
 8  COc1cc(S(=O)(=O)Nc2ccc(-c3csc(N4C(=O)C(C)SC4c4ccccc4)n3)cc2)ccc1Cl (centres undefined)    active
 9  C=C1C[C@]23CC[C@@H]4C(CO)(CO)CC(=O)C[C@]4(C)[C@@H]2C(O)C[C@H]1C3 (some centres undefined)  inactive
10  C=C1C(=O)OC2CC(C)C3CC(O)OC(OCC)C3(C)CC12 (centres undefined)  inactive
11  O=S(=O)(c1ccccc1)[C@@H]1[C@H]2C=C[C@](CS)(O2)[C@H]1S(=O)(=O)c1ccccc1  inactive
12  CCOC(=O)[C@@H]1ON2O[C@H](OC3CCCC3(c3ccccc3)c3ccccc3)C[C@H]3OC(=O)[C@@H]1C32 (some centres undefined)  inactive
13   Clc1cccc(Cl)c1/C=N/C12CC3CC(CC(C3)C1)C2  inactive
14      CCCC(CCC(=O)O)(CCC(=O)O)[N+](=O)[O-]  inactive
15  COC1=CC(=O)C2=C(C1=O)[C@H]1CC[C@]3(C)[C@@H](OC(C)=O)CC[C@H]3[C@@H]1CC2  inactive
16  COc1c2c(cc3oc(=O)ccc13)OC(C)(C)C=C2 [XANTHOXYLETIN]  inactive
17  COC(=O)C(Cc1ccccc1)C(=O)NC(CNC(=O)OCc1ccccc1)C(=O)OCc1ccccc1 (centres undefined)  inactive
18  CC(C)(S)C(N)C(=O)O (stereo not drawn) [DL-PENICILLAMINE]  inactive
19        CCOC(CN(C)C(=S)Nc1cccc2ccccc12)OCC  inactive
